Reported Barnyardgrass plant response rating is given for each of the following compounds.
# Tested on: barnyardgrass
# assay-overview: Test C preemergence
# Assay type: in vivo, Echinochloa crus-galli
# experimental-conditions: preemergence, 31 g ai/ha; visual rating, scale 0 to 100 (0 no effect, 100 complete control), 13 to 15 days

{"query-smiles": "CCOc1cc(C(=O)NOC(C)C)nn1Cc1ccnc(C(F)(F)F)c1", "tgt": "barnyardgrass", "Barnyardgrass plant response rating": 15}
{"query-smiles": "CCNC(=O)c1cc(CC)n(Cc2cc(C(F)(F)F)nn2C)n1", "tgt": "barnyardgrass", "Barnyardgrass plant response rating": 55}
{"query-smiles": "O=C(NC1CC1)c1cc(CCF)n(Cc2ccnc(C(F)(F)F)c2)n1", "tgt": "barnyardgrass", "Barnyardgrass plant response rating": 25}
{"query-smiles": "O=C(NCC(F)(F)F)c1cc(CCF)n(Cc2ccnc(C(F)(F)F)c2)n1", "tgt": "barnyardgrass", "Barnyardgrass plant response rating": 80}
{"query-smiles": "CCCc1cc(C(=O)NC(C)C)nn1Cc1ccnc(C(F)(F)F)c1", "tgt": "barnyardgrass", "Barnyardgrass plant response rating": 100}
{"query-smiles": "CCNC(=O)c1cc(CCF)n(Cc2ccnc(C(F)(F)F)c2)n1", "tgt": "barnyardgrass", "Barnyardgrass plant response rating": 10}
{"query-smiles": "O=C(NC1CC1)c1cc(CCCl)n(Cc2ccnc(C(F)(F)F)c2)n1", "tgt": "barnyardgrass", "Barnyardgrass plant response rating": 75}
